Below: a set of entries, each annotated with reported hemolysis at 1 h, 6.25 µM.
assay: Hemolytic activity against human RBC at 6.25 uM after 1 hr by Drabkin's assay relative to control; type: ADME, cell-based, Erythrocyte; details: human red blood cells (erythrocytes), read-out: Activity

{"structure smiles string": "O=CN1CCCN1C(=O)N1CCC[C@H]1C(=O)N1CCCN1C(=O)N1CCC[C@H]1C(=O)N1CCCN1C(=O)N1CCC[C@H]1C(=O)N1CCCN1C(=O)N1CCC[C@H]1C(=O)N1CCCN1C(=O)N1CCC[C@H]1C(=O)NCCO", "hemolysis at 1 h, 6.25 µM [%]": -0.361}
{"structure smiles string": "CC(C)(C)OC(=O)[C@@H]1CCCN1C(=O)N1CCCN1C(=O)[C@@H]1CCCN1C(=O)N1CCCN1C(=O)[C@@H]1CCCN1C(=O)N1CCCN1C(=O)[C@@H]1CCCN1C(=O)N1CCCN1C(=O)OCc1ccccc1", "hemolysis at 1 h, 6.25 µM [%]": 0.09}
{"structure smiles string": "CC(=O)N1CCCN1C(=O)N1CCC[C@H]1C(=O)N1CCCN1C(=O)N1CCC[C@H]1C(=O)N1CCCN1C(=O)N1CCC[C@H]1C(=O)N1CCCN1C(=O)N1CCC[C@H]1C(=O)N1CCCN1C(=O)N1CCC[C@H]1C(=O)N1CCCN1C(=O)N1CCC[C@H]1C(=O)N1CCCN1C(=O)N1CCC[C@H]1C(=O)N1CCCN1C(=O)N1CCC[C@H]1C(=O)NCCO", "hemolysis at 1 h, 6.25 µM [%]": 0.08}
